assayed.target: Indoleamine 2,3-dioxygenase 1 (Homo sapiens, UniProt P14902)
Sequence (P14902 whole entry): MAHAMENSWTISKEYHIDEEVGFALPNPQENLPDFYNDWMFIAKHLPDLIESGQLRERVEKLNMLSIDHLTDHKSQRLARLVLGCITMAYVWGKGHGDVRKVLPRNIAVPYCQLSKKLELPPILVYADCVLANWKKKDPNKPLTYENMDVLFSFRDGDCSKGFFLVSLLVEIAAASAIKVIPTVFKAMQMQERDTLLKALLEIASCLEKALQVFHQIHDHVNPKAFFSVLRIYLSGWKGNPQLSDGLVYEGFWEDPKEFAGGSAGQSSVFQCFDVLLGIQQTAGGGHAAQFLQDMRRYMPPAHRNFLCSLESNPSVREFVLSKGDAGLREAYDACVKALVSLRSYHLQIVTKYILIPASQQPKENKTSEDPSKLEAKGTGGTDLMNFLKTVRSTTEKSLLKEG
experimental.details: Inhibition of IDO1 in human HeLa cells using L-tryptophan as substrate after 20 hrs
Assay type: cell-based
pIC50: −log10 of the molar value.
Property: pIC50; scope: individual compounds
endpoint: pIC50

compound: NOC(c1ccccc1)c1ccc(Cl)cc1 (stereo not drawn)
readout.value: 5.15
//
compound: NOC(c1ccccc1)c1cc(C(F)(F)F)cc(C(F)(F)F)c1 (stereo not drawn)
readout.value: 5.47
//
compound: NOC(c1ccccc1)c1cccc(Cl)c1Cl (stereo not drawn)
readout.value: 5.73
//
compound: NOC(c1ccccc1)c1ccc(Cl)cc1Cl (stereo not drawn)
readout.value: 5.70
//
compound: NOC(c1ccccc1)c1ccccc1F (stereo not drawn)
readout.value: 5.90
//
compound: NOC(c1ccccc1)c1ccccc1Cl (stereo not drawn)
readout.value: 5.61
//
compound: NOC(c1ccccc1)c1ccsc1 (stereo not drawn)
readout.value: 5.47
//
compound: NOC(CCCC(=O)Nc1ccccc1)c1cccc(Cl)c1 (stereo not drawn)
readout.value: 5.84
